Reported composite z-score values for a set of compounds
Biological target: Follistatin (Homo sapiens) (UniProt P19883)
Sequence (P19883 whole entry, looked up): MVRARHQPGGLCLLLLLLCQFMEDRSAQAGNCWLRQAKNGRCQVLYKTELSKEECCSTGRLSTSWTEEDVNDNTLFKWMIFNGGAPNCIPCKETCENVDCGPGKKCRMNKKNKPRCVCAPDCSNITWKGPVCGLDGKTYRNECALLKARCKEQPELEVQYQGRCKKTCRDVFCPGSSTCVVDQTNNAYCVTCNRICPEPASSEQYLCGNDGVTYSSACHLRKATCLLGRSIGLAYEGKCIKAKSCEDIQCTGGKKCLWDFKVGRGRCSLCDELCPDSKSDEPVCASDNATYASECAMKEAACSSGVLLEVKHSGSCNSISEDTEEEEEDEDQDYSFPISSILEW
Experiment: FST protein binding to printed compounds – biochemical, small-molecule microarray, 635/667 nm fluorescence, primary screen (AID 1132)
Details: 635 nm fluorescence, higher = more signal

C=CCOC(=O)[C@@H]1[C@H]2C(=O)O[C@H](c3ccccc3)[C@H](c3ccccc3)N2[C@H](c2ccc(OCCOC(=O)[C@H]3C[C@H]4C(=O)N[C@@H](CCCCN(C)C)C(=O)N4[C@H]3c3ccc(O)cc3)cc2)[C@@]12C(=O)Nc1ccc(I)cc12
1.4
COCCOC(=O)N1C(=O)[C@@]2(c3ccccc31)[C@H](C(=O)N1CCN(c3ncccn3)CC1)[C@H]1C(=O)O[C@H](c3ccccc3)[C@H](c3ccccc3)N1[C@@H]2c1ccccc1OCCO
1.15
COC(=O)[C@]1(Cc2ccccc2)N=C(c2ccc(OCCCO)cc2)O[C@@H]1c1ccccc1CN=[N+]=[N-]
1.44
CN(C)CCCCNC(=O)[C@H]1C[C@H]2C(=O)NCC(=O)N2[C@H]1c1ccc(O)cc1
0.481
O=C1NC(=O)C2C1C=CC(C(O)c1ccc(B(O)O)cc1)N2Nc1ccc(Cl)cc1Cl (stereo unspecified)
0.529

Looking up `O=C1O[C@@H](c2ccccc2)[C@@H](c2ccccc2)N2[C@@H](c3ccc(OCCO)cc3)[C@]3(C(=O)Nc4ccc(C#CC5(O)CCCCCC5)cc43)[C@@H](C(=O)Nc3nc4ccccc4s3)[C@H]12` , I found its composite z-score recorded as 1.33
